MCF: recorded values
- TESTED_TARGET: T1, human HER2 (human, UniProt P04626 23-1255)
- T1 construct: also called hHER2
- EXPERIMENTAL_PROTOCOL: FACS CHO-HER2, 222 nM

Past entries and their recorded results:
[
  {
    "BINDER": "17B05 (VHH, also called HER3MS17B05; HER3MS017B05) VHH: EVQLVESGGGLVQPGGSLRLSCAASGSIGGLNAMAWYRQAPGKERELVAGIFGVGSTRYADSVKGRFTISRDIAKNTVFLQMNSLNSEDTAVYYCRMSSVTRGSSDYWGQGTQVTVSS",
    "MCF": 84
  },
  {
    "BINDER": "18G11 (VHH, c-myc, His6-tagged form as expressed; also called HER3MS18G11; HER3MS018G11) VHH: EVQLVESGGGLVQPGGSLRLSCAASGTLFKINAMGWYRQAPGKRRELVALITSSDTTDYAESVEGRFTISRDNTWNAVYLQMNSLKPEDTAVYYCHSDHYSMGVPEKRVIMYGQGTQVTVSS",
    "MCF": 109
  },
  {
    "BINDER": "17E08 (VHH) VHH: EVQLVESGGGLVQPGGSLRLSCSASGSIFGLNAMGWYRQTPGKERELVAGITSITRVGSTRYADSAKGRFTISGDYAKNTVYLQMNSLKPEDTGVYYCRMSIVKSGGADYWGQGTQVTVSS",
    "MCF": 51
  },
  {
    "BINDER": "18E08 (VHH) VHH: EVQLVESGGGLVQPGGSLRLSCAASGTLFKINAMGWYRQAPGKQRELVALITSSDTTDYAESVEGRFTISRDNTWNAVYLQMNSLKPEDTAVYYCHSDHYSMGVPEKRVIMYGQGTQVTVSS",
    "MCF": 53
  },
  {
    "BINDER": "18F05 (VHH, also called 18F5) VHH: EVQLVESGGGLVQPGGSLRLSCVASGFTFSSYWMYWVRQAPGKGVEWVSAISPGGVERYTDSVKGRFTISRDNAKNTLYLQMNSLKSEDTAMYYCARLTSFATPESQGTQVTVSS",
    "MCF": 436
  },
  {
    "BINDER": "18B05 (VHH) VHH: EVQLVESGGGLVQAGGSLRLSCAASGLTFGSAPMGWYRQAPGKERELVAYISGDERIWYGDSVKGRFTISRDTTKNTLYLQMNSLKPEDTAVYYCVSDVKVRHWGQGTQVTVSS",
    "MCF": 61
  }
]

Q) What does the record list as MCF for 21B02 (VHH) VHH: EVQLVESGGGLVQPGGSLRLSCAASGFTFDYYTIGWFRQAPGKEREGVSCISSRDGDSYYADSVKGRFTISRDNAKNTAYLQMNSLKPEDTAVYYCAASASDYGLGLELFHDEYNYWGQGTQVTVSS ?
A) 1340

Q) What does the record list as MCF for 17C08 (VHH, also called 17C8) VHH: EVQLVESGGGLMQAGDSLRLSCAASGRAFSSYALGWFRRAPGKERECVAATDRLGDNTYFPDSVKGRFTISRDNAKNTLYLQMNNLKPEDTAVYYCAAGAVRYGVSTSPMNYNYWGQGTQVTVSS ?
A) 160

Ref: patent US20130136748A1
